Target: MMP-9 (Homo sapiens)
Sequence (P14780 94-707): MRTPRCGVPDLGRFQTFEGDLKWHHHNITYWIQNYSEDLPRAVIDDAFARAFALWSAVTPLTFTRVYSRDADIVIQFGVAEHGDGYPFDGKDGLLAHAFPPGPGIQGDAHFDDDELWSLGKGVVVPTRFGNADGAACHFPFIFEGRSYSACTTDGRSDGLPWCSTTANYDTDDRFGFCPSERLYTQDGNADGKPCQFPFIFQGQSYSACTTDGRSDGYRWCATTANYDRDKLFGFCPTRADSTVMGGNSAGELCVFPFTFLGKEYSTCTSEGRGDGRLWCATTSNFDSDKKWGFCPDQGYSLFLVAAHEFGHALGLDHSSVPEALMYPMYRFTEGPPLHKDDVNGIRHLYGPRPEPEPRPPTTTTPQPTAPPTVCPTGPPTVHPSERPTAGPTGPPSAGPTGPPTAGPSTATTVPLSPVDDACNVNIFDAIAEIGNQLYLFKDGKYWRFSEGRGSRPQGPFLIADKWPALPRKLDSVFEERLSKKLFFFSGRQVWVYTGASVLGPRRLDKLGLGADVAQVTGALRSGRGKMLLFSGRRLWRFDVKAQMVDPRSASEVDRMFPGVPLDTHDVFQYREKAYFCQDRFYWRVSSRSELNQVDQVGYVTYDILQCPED
Experiment: MMP-9 inhibition (thiopeptide or fluorescent peptide substrate)
Format: biochemical
Please go through the items and note down their IC50.

Value (IC50, MMP-9 (Homo sapiens)) for record CCN(CC)CC#CCOc1ccc(S(=O)(=O)N(C)c2c(C)cc(Br)cc2C(=O)NO)cc1 = 2830 nM

Value (IC50, MMP-9 (Homo sapiens)) for record CCC#CCOc1ccc(S(=O)(=O)N(C)c2c(C)cc(Br)cc2C(=O)NO)cc1 = 800 nM

Value (IC50, MMP-9 (Homo sapiens)) for record COc1ccccc1C#CCOc1ccc(S(=O)(=O)N(C)c2c(C)cc(Br)cc2C(=O)NO)cc1 = 1510 nM

Value (IC50, MMP-9 (Homo sapiens)) for record COCC#CCOc1ccc(S(=O)(=O)N(C)c2c(C)cc(Br)cc2C(=O)NO)cc1 = 387 nM
